target: c-Myc/Max/Ebox DNA (Homo sapiens, UniProt P01106); experiment: c-Myc/Max/Ebox DNA AlphaScreen assay; type: binding; set-up: An exemplary assay uses full-length human c-Myc and Max proteins; his6 (cleaved yes); made in house; settings: c-Myc/Max/Ebox DNA AlphaScreen; NA: inactive under assay conditions; read-out: Biochemical IC50
Sequence (P01106 16-454): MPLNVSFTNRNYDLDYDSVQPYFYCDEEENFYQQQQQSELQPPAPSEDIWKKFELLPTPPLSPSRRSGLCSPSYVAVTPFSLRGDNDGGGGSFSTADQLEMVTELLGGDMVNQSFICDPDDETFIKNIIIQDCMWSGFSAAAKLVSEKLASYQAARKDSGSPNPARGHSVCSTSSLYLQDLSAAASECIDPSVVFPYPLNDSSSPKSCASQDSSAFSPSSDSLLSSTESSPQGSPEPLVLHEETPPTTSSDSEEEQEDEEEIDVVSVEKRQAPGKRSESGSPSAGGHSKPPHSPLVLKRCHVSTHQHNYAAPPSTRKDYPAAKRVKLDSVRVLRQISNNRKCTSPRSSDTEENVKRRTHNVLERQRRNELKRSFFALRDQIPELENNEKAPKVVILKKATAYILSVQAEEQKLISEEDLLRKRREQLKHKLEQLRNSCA
Quick reference: IC50 of the listed items.

>  <compound>
Cc1ccc(C)n1-c1cc(C(=O)N/N=C/c2cc(F)c(F)c(F)c2)ccc1C(=O)O

>  <experimental.target>
c-Myc/Max/Ebox DNA (Homo sapiens, UniProt P01106)

>  <IC50>
9.3 µM

$$$$
>  <compound>
Cc1ccc(C)n1-c1ccc(Cl)cc1C(=O)O [Compound 147]

>  <experimental.target>
c-Myc/Max/Ebox DNA (Homo sapiens, UniProt P01106)

>  <IC50>
11.5 µM

$$$$
>  <compound>
CC(=O)OCOC(=O)c1ccccc1N1CCOCC1

>  <experimental.target>
c-Myc/Max/Ebox DNA (Homo sapiens, UniProt P01106)

>  <IC50>
2480 µM

$$$$
>  <compound>
Cc1ccc(-c2ccccc2)n1-c1ccc(O)c(C(=O)O)c1

>  <experimental.target>
c-Myc/Max/Ebox DNA (Homo sapiens, UniProt P01106)

>  <IC50>
61.8 µM

$$$$
>  <compound>
CC(=O)OCOC(=O)c1ccc(Cl)cc1-n1c(C)ccc1C

>  <experimental.target>
c-Myc/Max/Ebox DNA (Homo sapiens, UniProt P01106)

>  <IC50>
206 µM

$$$$
>  <compound>
Cc1ccc(C)n1-c1cc(C(=O)N/N=C\c2ccc(C(=O)O)s2)ccc1C(=O)O

>  <experimental.target>
c-Myc/Max/Ebox DNA (Homo sapiens, UniProt P01106)

>  <IC50>
0.492 µM

$$$$
>  <compound>
Cc1c2ccccc2c(C)n1-c1ccccc1C(=O)O

>  <experimental.target>
c-Myc/Max/Ebox DNA (Homo sapiens, UniProt P01106)

>  <IC50>
57.8 µM

$$$$
>  <compound>
CC(=O)OCOC(=O)c1ccc(-n2c(C)ccc2C)cc1O

>  <experimental.target>
c-Myc/Max/Ebox DNA (Homo sapiens, UniProt P01106)

>  <IC50>
91.4 µM

$$$$
